This collection of values is drawn from patent US11963972B2.

# ASSAY_OVERVIEW: Cytotoxicity MTT assay in CEM cells
# Assay type: cell-based
# SETUP_CONDITIONS: human
# From the text: The toxicity of the compounds can be assessed in Vero, human PBM, CEM (human lymphoblastoid), and can be assessed in MT-2, and HepG2 cells, as described previously (see Schinazi R. F., Sommadossi J.-P., Saalmann V., Cannon D. L., Xie M.-Y., Hart G. C., Smith G. A. & Hahn E. F. Antimicrob. Agents Chemother. 1990, 34, 1061-67). Cycloheximide can be included as positive cytotoxic control, and untreated cells exposed to solvent can be included as negative controls. […]
Could you please report measured IC50 for the items listed next?
Answers are plain numbers, in µM.

- COMPOUND: "C[C@@H]1C[C@@H]([C@H](O)CC2CC(=O)NC(=O)C2)C(=O)[C@@H](C)C1"
  RESULT_UNITS: "µM"
  IC50: 0.2

Below are 2 compounds. Give each one its IC50.
1. CC(C)OC(=O)[C@H](C)NP(=O)(OC[C@H]1O[C@@H](n2cc(F)c3c(N)ncnc32)[C@](C)(O)C1O)Oc1ccccc1 (stereo partly shown)
2. CCOC(=O)[C@H](C)NP(=O)(OCC1O[C@@H](n2cnc3c(NOC)nc(N)nc32)[C@](C)(O)[C@@H]1O)Oc1ccccc1 (stereo partly shown)

1. 92.1
2. 28

###

# ASSAY_OVERVIEW: Cytotoxicity MTT assay in CEM cells
# Format: cell-based
# SETUP_CONDITIONS: human, CEM lymphoblastoid cells
RECORDED_ENDPOINT: IC50 (µM)
Answers are plain numbers, in µM.

// below: answered compounds
- COMPOUND: "CC1(O)C(O)[C@@H](CO)O[C@H]1n1cc(F)c2c(N)ncnc21 (stereo partly drawn) [drawing 91]"
  IC50 (µM): 33.6
- COMPOUND: "O=c1nc(NO)ccn1[C@@H]1O[C@H](CO)C(O)C1O (stereo partly drawn) [drawing 107]"
  IC50 (µM): 2.5

What value of IC50 has been recorded for this entry: CC1(O)C(O)[C@@H](CO)O[C@H]1n1ccc(N)nc1=O (stereo partly drawn)
84.3

###

# Test system: DENV-2 replicon
# ASSAY_OVERVIEW: DENV-2 replicon model
# Type: cell-based
# SETUP_CONDITIONS: Dengue virus, DENV2
RECORDED_ENDPOINT: pEC50
Answers are plain numbers, as −log10 of the molar value.

What value of pEC50 has been recorded for this entry: O=C(O)c1cc(/N=N/c2ccc(S(=O)(=O)Nc3ccccn3)cc2)ccc1O
5.08

###

Could you please report measured IC50 for the items listed next?
# ASSAY_OVERVIEW: Cytotoxicity MTT assay in Huh7 cells
# Type: cell-based
# SETUP_CONDITIONS: human

// below: answered molecules
- MOLECULE: "CC1(O)C(O)[C@@H](CO)O[C@H]1n1cc(F)c2c(N)ncnc21 (stereo partly drawn) [drawing 91]"
  IC50: "17.5 µM"
- MOLECULE: "CC(C)OC(=O)[C@H](C)NP(=O)(OC[C@H]1O[C@@H](n2ccc(NO)nc2=O)C(C)(O)C1O)Oc1ccccc1 (stereo partly drawn)"
  IC50: "> 100 µM"

Now look at this entry.
What value of IC50 has been recorded for this entry: CCOC(=O)[C@H](C)NP(=O)(OCC1C(n2cnc3c(N)cc(N)nc32)C[C@](C)(O)[C@@H]1O)Oc1ccccc1 (stereo partly drawn)
> 100 µM

###

Could you please report measured inhibition at 20 µM for the items listed next?
# Tested on: ZIKV Puerto Rico strain (PRVABC59)
# ASSAY_OVERVIEW: ZIKV CPE MTS assay in Vero cells
# Assay type: cell-based, Zika virus
# SETUP_CONDITIONS: Zika virus, Vero, read-out: ZIKV CPE MTS Assay percentage of inhibition at the concentration, Vero
Numbers only, in %.

- MOLECULE: "CCOC(=O)[C@@H](C)NP(=O)(OC[C@H]1O[C@@H](n2ccc(NO)nc2=O)C(C)(O)C1O)Oc1ccccc1 (some centres unmarked)"
  EXPERIMENTAL_SYSTEM: "ZIKV Puerto Rico strain (PRVABC59)"
  inhibition at 20 µM (%): 1
- MOLECULE: "CC(C)OC(=O)[C@H](C)NP(=O)(OCC1O[C@@H](n2cnc3c(N)nc(N)nc32)[C@](C)(O)[C@@H]1O)Oc1ccccc1 (some centres unmarked)"
  EXPERIMENTAL_SYSTEM: "ZIKV Puerto Rico strain (PRVABC59)"
  inhibition at 20 µM (%): 1

Below are 4 molecules. Give each one its inhibition at 20 µM.
1. CC(C)OC(=O)[C@H](C)NP(=O)(OC[C@H]1O[C@@H](n2ccc(NO)nc2=O)C(C)(O)C1O)Oc1ccccc1 (some centres unmarked)
2. CCOC(=O)[C@H](C)NP(=O)(OC[C@H]1O[C@@H](n2cnc3c(N)nc(N=[N+]=[N-])nc32)C(C)(O)C1O)Oc1ccccc1 (some centres unmarked)
3. CCOC(=O)[C@H](C)NP(=O)(OCC1O[C@@H](n2cnc3c(NOC)nc(N)nc32)[C@](C)(O)[C@@H]1O)Oc1ccccc1 (some centres unmarked)
4. CC(C)OC(=O)[C@H](C)N[P@](=O)(OC[C@H]1O[C@@H](n2ccc(=O)[nH]c2=O)[C@](C)(F)[C@@H]1O)Oc1ccccc1

1. 1
2. 3
3. 19
4. 1

Below are 2 molecules. Give each one its inhibition at 20 µM.
1. CCOC(=O)[C@H](C)NP(=O)(OCC1C(n2cnc3c(N)cc(N)nc32)C[C@](C)(O)[C@@H]1O)Oc1ccccc1 (some centres unmarked)
2. CC(C)OC(=O)[C@H](C)NP(=O)(OCC1O[C@@H](n2cnc3c(N=[N+]=[N-])nc(N)nc32)[C@](C)(O)[C@@H]1O)Oc1ccccc1 (some centres unmarked)

1: 1; 2: 1

###

# ASSAY_OVERVIEW: Cytotoxicity MTT assay in HepG2 cells
# Type: cell-based
# SETUP_CONDITIONS: human
Could you please report measured IC50 for the items listed next?

// below: answered molecules
- MOLECULE: "CC1(F)C(O)[C@@H](CO)O[C@H]1n1ccc(N)nc1=O (stereo partly drawn)"
  RESULT: "> 100 µM"
- MOLECULE: "O=C(O)c1cc(/N=N/c2ccc(S(=O)(=O)Nc3ccccn3)cc2)ccc1O [drawing 106]"
  RESULT: "> 100 µM"

Now look at this entry.
What value of IC50 has been recorded for this entry: CCOC(=O)[C@H](C)NP(=O)(OC[C@H]1O[C@@H](n2cnc3c(N)nc(N=[N+]=[N-])nc32)C(C)(O)C1O)Oc1ccccc1 (stereo partly drawn)
> 100 µM

###

# ASSAY_OVERVIEW: Cytotoxicity MTT assay in PBM cells
# Format: cell-based
# SETUP_CONDITIONS: human, PHA-stimulated human PBM cells
# Description: v) Cellular Toxicity Assays: Nucleoside and nucleoside monophosphate prodrugs can be evaluated for their potential toxic effects on P4/R5 cells, MT-2 cells and uninfected PHA-stimulated human PBM cell. […] The reaction can be stopped with stop solubilization solution (Promega, Madison, WI) and plates can be read at a wavelength of 570 nm. […]
Could you please report measured IC50 for the items listed next?

// below: answered molecules
- MOLECULE: "O=C(O)c1cc(/N=N/c2ccc(S(=O)(=O)Nc3ccccn3)cc2)ccc1O [drawing 106]"
  IC50: "> 100 µM"
- MOLECULE: "CC1(F)C(O)[C@@H](CO)O[C@H]1n1ccc(N)nc1=O (stereo partly drawn)"
  IC50: "> 100 µM"

What value of IC50 has been recorded for this entry: C[C@@]1(O)C(n2cnc3c(N)ncnc32)O[C@H](CO)[C@@H]1O (stereo partly drawn)
> 100 µM

###

Could you please report measured IC50 for the items listed next?
# ASSAY_OVERVIEW: Cytotoxicity MTT assay in CEM cells
# Format: cell-based
# SETUP_CONDITIONS: human, CEM lymphoblastoid cells

// below: answered compounds
- COMPOUND: "CC1(F)C(O)[C@@H](CO)O[C@H]1n1ccc(N)nc1=O (stereo partly drawn)"
  RECORDED_ENDPOINT: "IC50"
  RESULT: "> 100 µM"
- COMPOUND: "O=C(O)c1cc(/N=N/c2ccc(S(=O)(=O)Nc3ccccn3)cc2)ccc1O [drawing 106]"
  RECORDED_ENDPOINT: "IC50"
  RESULT: "> 100 µM"

What value of IC50 has been recorded for this entry: C[C@@]1(O)C(n2cnc3c(N)ncnc32)O[C@H](CO)[C@@H]1O (stereo partly drawn)
> 100 µM
